Data origin, for the record: PubChem BioAssay (NCI)

Please go through the items and note down their TGI.
- Tested on: T-47D breast
- PROTOCOL_SUMMARY: NCI tumour cell line growth inhibition, 48 h

In the examples that follow, each entry is paired with its recorded TGI.
{"COMPOUND": "O=C1C2SC34c5c2c2ccccc2n5CCC3CCCN14 (configuration not stated)", "TGI": "> 100 µM"}
{"COMPOUND": "COc1cc(/C=C/C(=O)c2ccc(O)c(OC)c2)ccc1O", "TGI": "58.7 µM"}
{"COMPOUND": "COc1cc(OC)cc(Oc2nc3ccccc3nc2C(F)(F)F)c1", "TGI": "> 100 µM"}
{"COMPOUND": "CC1(C)[C@@H](Cn2ccc(=O)[nH]c2=O)CC[C@@]1(C)CO", "TGI": "> 100 µM"}
{"COMPOUND": "O=C(O)c1nnsc1-c1ccc(-c2snnc2C(=O)O)cc1", "TGI": "> 100 µM"}

Fill in TGI for each of the 5 compounds listed.
1. c1ccc(N=C(N2CCCC2)N(CCN2CCCC2)c2ccccc2)cc1
2. COc1cccc(F)c1C(=O)c1cnc(NC2CCN(S(C)(=O)=O)CC2)nc1N
3. Cc1cc(Cl)cc(OCCn2cc(F)cn2)c1-c1nc(N)nc2c1CN(C(=O)NCC(C)(F)F)C2
4. COc1ccc(C2SC(N)=Nc3c2c(C)nn3C(=O)c2ccncc2)cc1OC (configuration not stated)
5. Cn1cc(C2=C(c3ccc(N)cc3)C(=O)NC2=O)c2ccccc21

1. > 100 µM
2. 24.4 µM
3. > 100 µM
4. > 10 µM
5. > 25 µM

###

Please go through the items and note down their TGI.
- Tested on: SK-MEL-28 melanoma
- PROTOCOL_SUMMARY: NCI tumour cell line growth inhibition, 48 h

{"MOLECULE": "O=c1oc2ccccc2cc1-c1cc2ccccn2c1", "TGI": "> 100 µM"}

Fill in TGI for each of the 8 molecules listed.
1. COc1cc(Nc2nc3ccccc3nc2C(=O)O)cc(OC)c1OC
2. CCN(CC)CCCN1CCc2c([nH]c3ccccc23)C1c1cccnc1 (stereo not given)
3. N=C(N)C1CN(CCc2c[nH]c3ccccc23)C(=O)NC1=O (stereo not given)
4. CC(C)NC(=O)OCc1c(COC(=O)NC(C)C)c(-c2cc[n+](COC(=O)C3CC3)cc2)n2c1CCC2
5. Nc1nn2cc(F)cnc2c1C(=O)Nc1cncc(F)c1N1CCC(C(=O)N2CCN(C3COC3)CC2)CC1
6. COC(=O)c1ccc(/C=C/c2cc(O)ccc2O)cc1
7. C[C@H]1[C@H]2[C@H]3CC[C@@H]4[C@@]5(C)CC[C@H](O)C(C)(C)[C@@H]5CC[C@@]4(C)[C@]3(C)C[C@H](O)[C@@]2(C)C[C@H]2O[C@]21C
8. O=C(O)C(O)C(O)C(O)C(O)c1nc2ccccc2s1 (stereo not given)

1: > 100 µM; 2: > 100 µM; 3: > 100 µM; 4: > 100 µM; 5: > 100 µM; 6: 43.4 µM; 7: 36.9 µM; 8: 38 µM

Given CO/N=C(/C)c1cccc(Nc2cc(-n3nnc4ccccc43)nc3ccccc23)c1 , report its TGI on SK-MEL-28 melanoma.
> 100 µM

###

- Test system: PC-3 prostate
- PROTOCOL_SUMMARY: NCI tumour cell line growth inhibition, 48 h
REPORTED_METRIC: TGI

In the examples that follow, each entry is paired with its recorded TGI.
{"COMPOUND": "CO/N=C(\\C(=O)OC(=NC1CCCCC1)NC1CCCCC1)c1csc(NC(c2ccccc2)(c2ccccc2)c2ccccc2)n1", "SUBJECT_OF_TEST": "PC-3 prostate", "TGI": "> 10 µM"}
{"COMPOUND": "NC(=O)/C=C/C(=O)c1c(Cl)cccc1Cl", "SUBJECT_OF_TEST": "PC-3 prostate", "TGI": "2.81 µM"}
{"COMPOUND": "Cc1cc(Cl)cc(OCCn2cc(F)cn2)c1-c1nc(N)nc2c1CN(C(=O)NCC(C)(F)F)C2", "SUBJECT_OF_TEST": "PC-3 prostate", "TGI": "> 100 µM"}
{"COMPOUND": "C=C(Cl)C(=CCl)CCC(Br)C(C)(C)Cl (mixture of isomers)", "SUBJECT_OF_TEST": "PC-3 prostate", "TGI": "> 10 µM"}
{"COMPOUND": "O=CCC1CCCCC1", "SUBJECT_OF_TEST": "PC-3 prostate", "TGI": "> 100 µM"}

Consider now this further compound.
Give reported TGI value for O=C(Nc1ccc(Br)cc1F)c1cc(F)ccc1O
7.24 µM
